Exercise: state measured Kd for each of the binders provided.
# systemTested: T1, scHLA-B27-mmH (engineered HLA-B*27 ectodomain in-line fusion protein) (human (HLA-B*2705, beta-2 …))
# T1 construct: also called soluble HLA-B*27 fusion protein
# assayInfo: SPR (Biacore), mAb captured, 25 C, HBST pH 7.4
Numeric answer only, unit nM assumed.

Looking for the measured Kd of H4H2480N (antibody, V domains shown) VH: QVQLQQWGAGLLKPSETLSLTCAVYGGSFSGYYWSWIRQTPGKGLEWIGEISHSGNNNYNPSLKSRVTMSKDTSKNQFSLKLSSVTAADTAVYYCARIQLWLRGNDYYGMDVWGQGITVTVSS VL: DIQMTQSPSSLSASVGDRVTITCRASQGIRNDLGWYQQKPGKAPKRLIYAASSLQGGVPSRFSGSGSGTEFTLTISSLQPEDFATYYCLQHNSYPWTFGQGTKVEIK , can you help?
24

Could you do the same for H4H2490N2 (antibody, V domains shown) VH: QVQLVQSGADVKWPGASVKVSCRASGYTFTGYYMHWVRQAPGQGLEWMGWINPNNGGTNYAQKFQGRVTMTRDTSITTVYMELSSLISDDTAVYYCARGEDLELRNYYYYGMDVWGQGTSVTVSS VL: DIQMTQSPSSLSASVGDRVTITCRASQSISSYLNWYQQKPGKAPKLLIYAASNLQSGVPSRFSGSGFGTDFTLTISSLQSEDFATYYCQQTYSTRTFGRGTKVEIK , please?
259

Could you do the same for H4H2490N (antibody, V domains shown) VH: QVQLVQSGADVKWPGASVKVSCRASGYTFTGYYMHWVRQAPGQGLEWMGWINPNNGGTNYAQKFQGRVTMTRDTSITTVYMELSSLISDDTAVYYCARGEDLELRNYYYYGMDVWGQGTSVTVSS VL: DIQMTQSPSSLSASVGDRVTITCRASQSISSYLNWYQQKPGKAPKLLIYAASNLQSGVPSRFSGSGFGTDFTLTISSLQSEDFATYYCQQTYSTRTFGRGTKVEIN , please?
9.97
